Origin of values: paper PMC3553564

ASSAYED TARGET: PWI K777A+K778A (Homo sapiens, UniProt P49756 734-843, K777A;K778A)
Sequence (P49756 734-843 K777A/K778A): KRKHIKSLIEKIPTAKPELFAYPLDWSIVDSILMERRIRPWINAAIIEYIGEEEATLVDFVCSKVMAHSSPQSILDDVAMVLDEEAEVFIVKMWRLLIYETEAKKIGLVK
ASSAY EXPLANATION: fluorescence polarization
PARAMETER: Kd (µM)
Numeric answer only, unit µM assumed.

Record AUCGGGCA (ssRNA) [ssRNA] , field Kd: 156
